target: H. influenzae NfsB (Haemophilus influenzae)
Sequence (Q57431 whole entry): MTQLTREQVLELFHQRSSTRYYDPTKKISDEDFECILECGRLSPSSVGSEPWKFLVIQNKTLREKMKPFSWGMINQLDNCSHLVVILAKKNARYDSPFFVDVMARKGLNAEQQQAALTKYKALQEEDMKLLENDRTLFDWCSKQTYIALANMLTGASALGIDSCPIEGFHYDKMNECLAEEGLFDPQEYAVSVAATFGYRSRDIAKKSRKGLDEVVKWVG
attributeMeasured: pIC50
In plain terms, pIC50 is the concentration in mol/L turned into minus its base-10 logarithm.

*Q* Give recorded pIC50. O=c1oc2ccccc2c(O)c1Cc1c(O)c2ccccc2oc1=O
*A* 3.92
